Here's a batch of compounds along with measured pIC50 for thrombin (Bos taurus, UniProt P00735).
pIC50: −log10 of the molar value.

The cases that follow already have their pIC50 on record.
# compound, pIC50
rows = [
    ("O=C1c2c(O)cccc2Cc2cccc(O)c21", "< 4.70"),
    ("Cc1cccc(CN2CCN(C(c3ccccc3)c3ccc(Cl)cc3)CC2)c1 (stereo not drawn)", "< 4.70"),
]

Then this compound:
# return pIC50 for CC(C)(Sc1cc(C(C)(C)C)c(O)c(C(C)(C)C)c1)Sc1cc(C(C)(C)C)c(O)c(C(C)(C)C)c1 , test system: thrombin (Bos taurus, UniProt P00735)
< 4.70

----------
- Test system: human hepatoma cell line HepG2
- assay details: General cell cytotoxicity assay
- Assay type: cell-based
- protocol conditions: 20μM, 72 hours, media and compounds replaced every 24 hours
endpoint label: cytotoxicity to HepG2 cells

# entry smiles, observed value
measured = [
    ("O=C1c2c(O)cccc2Cc2cccc(O)c21", "toxic"),
]

----------
- Test system: mouse prostate epithelial cell line MP-1
- assay details: General cell cytotoxicity assay
- Format: cell-based
- protocol conditions: 20μM, 72 hours, media and compounds replaced every 24 hours
endpoint label: cytotoxicity to MP-1 cells

# entry smiles, observed value
rows = [
    ("O=C1c2c(O)cccc2Cc2cccc(O)c21", "toxic"),
]
